Where these numbers come from: the DeepSol protein solubility set

Experiment: soluble on expression in E. coli; label from the status in PepcDB or PDB records
measure-name: soluble on expression in E. coli

Recorded results for 4 sequences are shown here.
{"sequence-input": "MGSDKIHHHHHHMAKQQFNKLIWLVDTIFRNAPVTFAEINRRWRAGDDNRSDIPLRTFHNHRQAIEEIFDINIECDKRNNTYYIADAEGMLGDKLKMWLLNSFSLNNVLQENVDMKNRIVFEEVPSGVQFMDLVIDAMRSGRVLAMEYQAYNWEHSKDVLLEPYFVKLFRHRWYLIGINREYKAFRSYSLDRIKRIALSEETFNFPRKFTPQDHFRDSFGIIRDENLLPQHTVLRTTISQAPYLRNLPLHSSQKEIAVTESYVDFELYISHTYDFIQELLSKGAAVEVLKPQSLRDKIKAEIQNMQTLYHL", "soluble on expression in E. coli": "not soluble"}
{"sequence-input": "MGSDKIHHHHHHMNLKQITYFLAVAEAGQMTAAAKQLHMAQPPLSYQLKALEDELGVRLFERGSRGVRLTGSGQQFMTYAQQIVETVAAAENAARRSGEGEIGTLALGLTSSAGDVLPKQKLQAFNRRYPQVEFALYEDNTYGILDKLRRNILDLAIVRTPFNDDGLASCRLSSDHMIAVAAASQPLPATLTIPDLKQQPLIVYRRFSSLFKTTFAEYGITPIIAVLCDDARTALHWAQMGMGVALVPATMAALASQQSHLAVIDYEPWVTHMTLVWQPEALHNPLVARFVGQLSGGESEKYSK", "soluble on expression in E. coli": "not soluble"}
{"sequence-input": "GMTYKDYTGLDRTELLSKVRHMMSDKRFNHVLGVERAAIELAERYGYDKEKAGLAALLHDYAKELSDDEFLRLIDKYQPDPDLKKWGNNIWHGLVGIYKIQEDLAIKDQDILAAIAKHTVGSAQMSTLDKIVYVADYIEHNRDFPGVEEARELAKVDLNKAVAYETARTVAFLASKAQPIYPKTIETYNAYIPYLD", "soluble on expression in E. coli": "soluble"}
{"sequence-input": "MTNSIHEMIRASFKCEDMVKCVLGLKSLDIEAYKALLMHGPQTAEKLGEILNRERSTAYRSLQNLIACGIVYRETRSIESGGYYYEYVAIEPQEMKRMVKKNVDEWYNQMNELIEKMDDKVNALVTRLEDDEAKQK", "soluble on expression in E. coli": "not soluble"}

Look at this sequence and give its reported soluble on expression in E. coli. MSSTQEASVTDLPVKRPREAEEDNNGGAMETENGGGEIKEPSCMSSIIPGWFSEISPMWPGEAHSLKVEKILFQGKSDYQDVIVFQSATYGKVLVLDGVIQLTERDECAYQEMITHLPLCSISNPKKVLVIGGGDGGVLREVARHSSVEQIDICEIDKMVVDVAKQYFPNVAVGYEDPRVNLIIGDGVAFLKNAAEGTYDAVIVDSSDPIGPAKELFEKPFFESVNRALRPGGVVCTQAESLWLHMDIIEDIVSNCRDIFKGSVNYAWTSVPTYPSGVIGFMLCSSEGPQVDFKKPVSLIDTDESSIKSHCPLKYYNAEIHSAAFCLPSFAKKVIDSKAN soluble

Look at this sequence and give its reported soluble on expression in E. coli. TEFGSELKSFPEVVGKTVDQAREYFTLHYPQYNVYFLPEGSPVTRDLRYNRVRVFYNPGTNVVNHVPHVG soluble

---

Test: soluble on expression in E. coli; label from the status in PepcDB or PDB records
measure-name: soluble on expression in E. coli

Recorded results for 4 sequences are shown here.
{"sequence-input": "MGSDKIHHHHHHMSAIHIKYPALTFKAGQRALRHIRERGLQAADVGVLPGAAGGPKPLGIQGLDLALFGEWLPSAPRQRALIGASIGAWRFASACLDDPVAGIRRLGELYTEQDFAKGVTPAEISRSCQRMLDDLLEGRDGQLLANPHYRLNILVVKSHGQLAHDHRGRLGLGLGSVVASNLLGRSRLARHFERIILHDGRAAPPLDTLTDFPSRYLPLDLTNLRHALLASGSIPMVMQGVKDIPGAGAGTYRDGGLLDYHLDLPYRGDDLVLYPHFTDKVVPGWFDKALPWRKGDATRLQNVLLMTPSPQYLAALPYGKLPDRNDFKRFMGDAPGRKRYWYKAIAESQRLGDELLELTATGRLHERLQAL", "soluble on expression in E. coli": "not soluble"}
{"sequence-input": "MEDDDSPSSRDLDAQNPYDRLLALDTSTVDPNCNLDSVSAIYLAMKSSKLECVDERGQDSLITSVCMEDEEDEELDEFDPYLFIKNLPNLSSVVPTFRPVLLPKQTRSCPPISLVLDLDETLVHSTLEPCGEVDFTFPVNFNEEEHMVYVRCRPHLKEFMERVSRLFEIIIFTASQSIYAEQLLNVLDPKRKLFRHRVYRDSCVFFDGNYLKDLSVLGRDLSRVIIVDNSPQAFGFQVENGVPIESWFNDPSDKELLHLLPFLESLIGVEDVRPMIAKKFNLREKIDAAVAAPEYPAEAGDPFER", "soluble on expression in E. coli": "soluble"}
{"sequence-input": "MTADDSPSDRWGPRCTTRGPGSDPRFDVPVRGVDVGPETRCAHYHGPRDVIAIRFACCDVFYPCHRCHEETATHPPERWPHDQFNASAVLCGRCRTVLTIEQYLDADHTCPACGAAFNPNCARHHDRYFCVGLEHHHHHH", "soluble on expression in E. coli": "not soluble"}
{"sequence-input": "GPLGSPRNANDNNQFYQQKQRQALGEQLYKKVSAKTSNEEAAGKITGMILDLPPQEVFPLLESDELFEQHYKEASAAYESFKKEQEQQTEQA", "soluble on expression in E. coli": "soluble"}

Look at this sequence and give its reported soluble on expression in E. coli. MAHHHHHHMHLIYLKILFFSLLLDTFISSHTNIPRINNVTPKNVAINISPVVPIPDVITLDYIKENLEQIRLIKDIIIKGKLKKLKVLKQKCKKNKKDKEIKNEIENLEREIMDTRKLCNNYIKNEIKEIKSLKDQIVKDKIEKDRWKKDLLIDYELKRLMYKPDIERLKQLNEEYKKEELRVAKLKDNMFKIYQFILYLIPNTIYYTIEFINNIPEVELSLPKFLKKKKKKKVNHFSHYGVPYMK soluble

Look at this sequence and give its reported soluble on expression in E. coli. GSHGMSKSPEEEHPVKAFGWAARDQSGHLSPFNFSRRATGEEDVRFKVLYCGVCHSDLHSIKNDWGFSMYPLVPGHEIVGEVTEVGSKVKKVNVGDKVGVGCLVGACHSCESCANDLENYCPKMILTYASIYHDGTITYGGYSNHMVANERYIIRFPDNMPLDGGAPLLCAGITVYSPLKYFGLDEPGKHIGIVGLGGLGHVAVKFAKAFGSKVTVISTSPSKKEEALKNFGADSFLVSRDQEQMQAAAGTLDGIIDTVSAVHPLLPLFGLLKSHGKLILVGAPEKPLELPAFSLIAGRKIVAGSGIGGMKETQEMIDFAAKHNITADIEVISTDYLNTAMERLAKNDVRYRFVIDVGNTLAATKP soluble

Look at this sequence and give its reported soluble on expression in E. coli. MGSSHHHHHHGGTGENLYFQGGSGRRLPLFCRRPSRCCGATASGSGSSSAAVLAASAAPSVLVLAARGIATSGRVTNEDRRWWLVHLECAPDVTPGTFVSWLDCCGTHTTKKLIERNIWTIEQVAELDSDRVDELKYKEGCLKMDVVWEHARTIITPLKQREVSGGVESQLQSRILELRKKRELERQRELLARERATVSDKREETLRRLRESVAAKKAALRKKLDEQHGEATPAASESASTEAHRGTAEAAVEDEAVGNIVDRMSGGNPPRA not soluble

Look at this sequence and give its reported soluble on expression in E. coli. MYALAFDLKIEILKKEYGEPYNKAYDDLRQELELLGFEWTQGSVYVNYSKENTLAQVYKAINKLSQIEWFKKSVRDIRAFKVEDFSDFTEIVKS not soluble

---

Assay: soluble on expression in E. coli; label from the status in PepcDB or PDB records

{"sequence-input": "MGSDKIHHHHHHMTTPTPVRAIVPTWLYEGLGLLVANPKVGKSTLMLQIVVAVTKGGEMWGQSVPRAKVLMIDLETNERRLRRKLEQAGAVGIESGWLLYATSWPRGLLGIDEIANTLDRDPEIKLVVIDTLQRFRDPGAGKQNAYAADYEALGPLQQLCRDRPGLAIVCVHHKRKSISDDPIDSISGSAAIAGACDSIWIMSRKGSEYTLHIQGRDWERDEDTFPIERVDQGWQLVNGPRYSSNEAEVLKHLEISGGMTGPQLGEALGIHRVSAYERLKRMADRGLVRFAGEHWHVS", "soluble on expression in E. coli": "not soluble"}
{"sequence-input": "MGSDKIHHHHHHMRILISPPMRFGKEFLGGMRRTLEVYSRMGEEVYLCVDERTLPQVDPEISPLLSKFHLVSSSSTDKKTYLKGFLNCLKYARKVDVLISYSEYSLSVYYTWLLSLFSRKPFIVVVHHVTEEIRGSKFLRTVIARSKGIICLDNPEVYEELKSLFPNKVILTSTNGVSVEDYYTSEEKICDGIFVGNYGERKGSRYLFQIWDKVNEKIDAKLCIIGKGWSEIPKNSVYYGFVTEREKIDLLAKSKVFVFPSLYEGFALAVTEALSAYLPVVTWDLKWSERYPVAIRVTYPDISSFAEEVVKLLKDEKLRKSIGEKSRELAKTLNWEKAAEMEKKAIYKIMESK", "soluble on expression in E. coli": "not soluble"}
